System: Escherichia coli ATCC 25922
Measurement label: MIC (µM)
Reply with just the number (in µM).

For Escherichia coli ATCC 25922, provide MIC of CC[C@H](C)[C@@H]1NC(=O)CNC(=O)[C@H](CCCN=C(N)N)NC(=O)[C@H](Cc2ccc(O)cc2)NC(=O)[C@@H]2CSSC[C@H](NC1=O)C(=O)N[C@@H](Cc1ccc(O)cc1)C(=O)N[C@@H](CCCN=C(N)N)C(=O)N[C@@H](CCCN=C(N)N)C(=O)N[C@H](C(=O)N[C@@H](C)C(=O)O)CSSC[C@H](NC(=O)[C@H](Cc1c[nH]c3ccccc13)NC(=O)[C@@H](N)CCCCN)C(=O)N[C@@H](Cc1ccccc1)C(=O)N[C@@H](CCCN=C(N)N)C(=O)N[C@@H](C(C)C)C(=O)N2 [KWCFRVCYRGICYRRCA] please.
0.0069

Consider now this further molecule.
For Escherichia coli ATCC 25922, provide MIC of CC[C@H](C)[C@H](N)C(=O)N[C@@H](CC(N)=O)C(=O)N[C@@H](Cc1c[nH]c2ccccc12)C(=O)N[C@@H](CC(C)C)C(=O)N[C@@H](CCCCN)C(=O)N[C@H](C(=O)N[C@@H](CCCCN)C(=O)N[C@@H](CCCCN)C(=O)N[C@@H](CCCCN)C(=O)N[C@H](C(=O)N[C@@H](C)C(=O)NCC(=O)N[C@@H](CCSC)C(=O)N[C@@H](CC(C)C)C(N)=O)C(C)C)[C@@H](C)CC [INWLKIKKKVAGML] please.
18.9
